Parameter log10 Ki, tested on Coagulation factor X (Homo sapiens, UniProt P00742), listed per item.
Sequence (P00742 41-179 limits assumed): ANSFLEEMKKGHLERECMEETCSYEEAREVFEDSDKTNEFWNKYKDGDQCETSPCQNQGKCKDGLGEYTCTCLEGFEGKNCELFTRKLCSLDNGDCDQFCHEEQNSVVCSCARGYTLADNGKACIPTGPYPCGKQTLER
Sequence (P00742 235-488 limits assumed): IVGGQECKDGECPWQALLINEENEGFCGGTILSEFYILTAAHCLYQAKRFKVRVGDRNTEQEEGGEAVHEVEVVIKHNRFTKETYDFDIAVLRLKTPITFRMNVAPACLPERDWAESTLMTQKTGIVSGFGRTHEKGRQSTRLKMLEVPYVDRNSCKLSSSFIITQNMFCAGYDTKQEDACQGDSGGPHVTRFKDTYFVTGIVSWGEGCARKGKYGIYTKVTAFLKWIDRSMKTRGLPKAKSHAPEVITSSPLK
In our notation, the value equals log10 of Ki in µM.

Take a look at these entries with their results.
CC(=O)Nc1ccc(CCOc2cc(C(=O)NCC3CCN(c4ccncc4)CC3)ccc2F)cc1; 1.00
COc1ccc(C(=O)NC2CCN(C3CCOCC3)CC2)cc1OCCc1ccc(Cl)cc1Cl; 0.40
COc1ccc(C(=O)NC2CCN(CC(=O)N3CCCC3)CC2)cc1OCCc1ccc(Cl)cc1Cl; 0.41

Q) Notebook entry, Coagulation factor X (Homo sapiens, UniProt P00742) assay: log10 Ki of COc1ccc(C(=O)NC2CCN(c3cc[n+]([O-])cc3)CC2)cc1OCCc1ccc(Cl)cc1Cl = ?
A) 0.10

Q) Request: log10 Ki, test system Coagulation factor X (Homo sapiens, UniProt P00742), entry CCN(CC)C(=O)[C@H](CCCN=C(N)N)NC(=O)c1ccc(OC)c(OCCc2ccc(Cl)cc2Cl)c1
A) -0.82

Q) Reported log10 Ki for Coagulation factor X (Homo sapiens, UniProt P00742), given COc1ccc(C(=O)NCC2CCN(c3cc(C)nc(N)n3)CC2)cc1OCCc1ccc(Cl)cc1Cl ?
A) 1.00

Q) What is its log10 Ki for Coagulation factor X (Homo sapiens, UniProt P00742)? Entry: CC(=O)Nc1ccc(CCOc2cc(C(=O)NCC3CCN(c4ccncc4)CC3)ccc2Cl)cc1
A) 1.00

Q) State its log10 Ki on Coagulation factor X (Homo sapiens, UniProt P00742): COc1ccc(C(=O)N2CCN(Cc3ccc(F)cc3)CC2)cc1OCCc1ccc(Cl)cc1Cl
A) 0.59

Q) What reported log10 Ki corresponds to COc1ccc(C(=O)NCC2CCN(c3ccc(S(C)(=O)=O)cc3)CC2)cc1OCCc1ccc(Cl)cc1Cl on Coagulation factor X (Homo sapiens, UniProt P00742)?
A) 1.00
